test.target: Cathepsin B (Mus musculus, UniProt P10605)
Sequence (P10605 whole entry): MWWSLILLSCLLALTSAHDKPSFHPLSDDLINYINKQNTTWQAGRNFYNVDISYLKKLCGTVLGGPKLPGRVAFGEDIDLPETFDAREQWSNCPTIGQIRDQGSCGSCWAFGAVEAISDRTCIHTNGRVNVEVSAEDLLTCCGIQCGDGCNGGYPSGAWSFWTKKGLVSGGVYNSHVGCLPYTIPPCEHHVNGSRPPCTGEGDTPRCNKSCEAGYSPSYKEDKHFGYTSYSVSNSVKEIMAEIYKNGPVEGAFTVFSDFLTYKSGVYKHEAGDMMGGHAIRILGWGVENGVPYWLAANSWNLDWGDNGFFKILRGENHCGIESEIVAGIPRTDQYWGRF
assay.procedure: Inhibition of mouse recombinant cathepsin B
Grouping key: IC50. Bins: Low = under 0.4 µM, Mid = from 0.4 µM up to 2 µM, High = 2 µM and over

## Input Just checking, what class would you give CS(=O)(=O)C[C@H](N[C@@H](c1ccc(Br)cc1)C(F)(F)F)C(=O)NC1(C#N)CC1 here?
## Output Low

## Input Which category does the recorded IC50 put N#CC1(NC(=O)[C@H](CS(=O)(=O)c2ccc(Br)cc2)N[C@@H](c2ccccc2)C(F)(F)F)CC1 in?
## Output Mid

## Input For the record N#CC1(NC(=O)[C@H](CS(=O)(=O)c2cccc(Br)c2)N[C@@H](c2ccccc2)C(F)(F)F)CC1 , report the class its IC50 corresponds to.
## Output High

## Input GET /class?item= CC(C)C[C@@H](NC(=O)N1CCOCC1)C(=O)N[C@@H](/C=C/S(=O)(=O)c1ccccc1)CCc1ccccc1
## Output Mid

## Input // return the class label for CS(=O)(=O)C[C@H](N[C@@H](c1ccc(F)cc1)C(F)(F)F)C(=O)NC1(C#N)CC1
## Output Low

## Input Consider CC(C)C[C@H](N[C@@H](c1ccc(-c2ccc(S(C)(=O)=O)cc2)cc1)C(F)(F)F)C(=O)NCC#N . To which IC50 class does it belong?
## Output Mid

## Input Any idea which band N#CC1(NC(=O)[C@H](CS(=O)(=O)Cc2cccc(F)c2F)N[C@@H](c2ccc(F)cc2)C(F)(F)F)CC1 is in?
## Output Low

## Input Please report the category associated with C[S+]([O-])C[C@H](N[C@@H](c1ccc(F)cc1)C(F)(F)F)C(=O)NC1(C#N)CC1 (stereo not given in full) , nothing else.
## Output High

## Input Class label required: N#CC1(NC(=O)[C@H](CS(=O)(=O)CC2CC2)N[C@@H](c2ccc(F)cc2)C(F)(F)F)CC1
## Output Low

## Input Exam item: assign N#CC1(NC(=O)[C@H](CS(=O)(=O)c2ccc(Cl)c(Cl)c2)N[C@@H](c2ccccc2)C(F)(F)F)CC1 to the correct category.
## Output High
